System: SEM cells
Assay: cell viability relative to DMSO control; higher = less cytotoxic
Conditions: HPLM + 10% dialyzed FBS; 48 h; 0.569 µM

molecule: Cc1cnc(Nc2ccc(CN3CCOCC3)cc2)nc1Nc1cccc([S+](=O)([O-])NC(C)(C)C)c1
cell viability (%): 58
//
molecule: CCC(C1CCC(C)C(O1)C(C)C(O)C(C)C(=O)C(CC)C2OC\3(O[C@]4(CC[C@@](C)(O4)C5CC[C@@](O)(CC)C(C)O5)C(O)\C=C3)C(C)CC2C)C([O-])=O (stereo partly specified)
cell viability (%): 116
//
molecule: COc1cc(Cl)cn2c(-c3cccc(NC4CNC4)n3)cnc12
cell viability (%): 125
//
molecule: C[C@@H]1C(=O)OC2[C@H](O)[C@]34[C@H]5C[C@@H](C(C)(C)C)[C@]36[C@@H](OC(=O)[C@@H]6O)O[C@@]4(C(=O)O5)[C@]21O (stereo partly specified)
cell viability (%): 117
//
molecule: C[N]1C=C(C=N1)C2=CC=C3N=CC\4=C(N(C(=O)\C=C4)C5=CC6=C(CCN6C(=O)C=C)C=C5)C3=C2
cell viability (%): 102
//
molecule: NC[C@H]1O[C@H](O[C@H]2[C@H](O)[C@@H](O[C@H]3O[C@H](CO)[C@@H](O)[C@H](N)[C@H]3O)[C@H](N)C[C@@H]2N)[C@H](N)C[C@@H]1O
cell viability (%): 107

----------
Below, each of the molecules is paired with its reported cell viability value.
Tested on: NOMO1
Test: cell viability relative to DMSO control; higher = less cytotoxic
Settings: RPMI 5 mM glucose + 10% dialyzed FBS; 48 h; 46.1 µM

molecule: Cc1cnc(Nc2ccc(N3CCN(C)CC3)cc2)nc1Nc1cccc([S+](=O)([O-])NC(C)(C)C)c1
cell viability [%]: 21.5
//
molecule: C[N]1N=CC=C1C/2=C(\C)N(C(=O)C(=C2)/C(=O)NCC3=NC=C(C=C3)[S+](C)([O-])=O)C4=CC=CC(=C4)C(F)(F)F
cell viability [%]: 103
//
molecule: CO[C@@H]1[C@@H](O)[C@H](O)[C@@H](n2c3c(Cl)cccc3c3c4c(c5c6cccc(Cl)c6[nH]c5c32)C(=O)NC4=O)O[C@H]1CO
cell viability [%]: 19.7
//
molecule: CCN(CC)CCCC(C)Nc1nc(C)cc(Nc2ccc3nc(C)cc(N)c3c2)n1 (centres undefined)
cell viability [%]: 103

----------
Tested on: NOMO1
Assay: AUC of viability dose-response curve (% viability x log10 dose units); higher = less sensitive
Settings: HPLM + 10% dialyzed FBS; 48 h

molecule: N#C/C(=C1/Nc2ccccc2S1)c1ccnc(OCc2ccc(CN3CCOCC3)cc2)n1
AUC of viability dose-response curve: 399
//
molecule: Oc1ccc(-c2ccc(-c3cc(Nc4cccc(CNC5CC5)c4)[nH]n3)cc2)c(O)c1
AUC of viability dose-response curve: 402
//
molecule: CCOC(=O)O[C@]1(C(=O)OCCl)CC[C@H]2[C@@H]3CCC4=CC(=O)C=C[C@]4(C)[C@H]3[C@@H](O)C[C@@]21C
AUC of viability dose-response curve: 459
//
molecule: Cc1ccc(/C=N/NC(=O)c2ccccc2Oc2ccccc2)o1
AUC of viability dose-response curve: 456
//
molecule: CC(C)c1c(C(=O)Nc2ccccc2)c(-c2ccccc2)c(-c2ccc(F)cc2)n1CC[C@@H](O)C[C@@H](O)CC(=O)[O-]
AUC of viability dose-response curve: 428
//
molecule: N=C(N)Nc1ccc(C(=O)Oc2ccc3cc(C(=N)N)ccc3c2)cc1
AUC of viability dose-response curve: 446
//
molecule: OCCN(CCO)c1nc(N2CCCCC2)c2nc(N(CCO)CCO)nc(N3CCCCC3)c2n1
AUC of viability dose-response curve: 459
//
molecule: CC[C@H]1OC(=O)[C@H](C)[C@@H](O[C@H]2C[C@@](C)(OC)[C@@H](O)[C@H](C)O2)[C@H](C)[C@@H](O[C@@H]2O[C@H](C)C[C@H](N(C)C)[C@H]2O)[C@](C)(O)C[C@@H](C)CN(C)[C@H](C)[C@@H](O)[C@]1(C)O
AUC of viability dose-response curve: 458
//
molecule: COC(=O)C/1=C(C)/N/C(=C(\C1C2=CC(=CC=C2)[N+]([O-])=O)C(=O)OCCCN3CCC(CC3)(C4=CC=CC=C4)C5=CC=CC=C5)C (configuration not stated)
AUC of viability dose-response curve: 439
//
molecule: NCCc1c[nH]cn1
AUC of viability dose-response curve: 466
//
molecule: Cc1cccc2c1CC[C@H](CN1CCC(c3c(Cl)cccc3Cl)CC1)C[C@@H]2O
AUC of viability dose-response curve: 453
//
molecule: NC(CO)C(=O)NNCc1ccc(O)c(O)c1O (configuration not stated)
AUC of viability dose-response curve: 448
//
molecule: N#CC[C@H](C1CCCC1)n1cc(-c2ncnc3[nH]ccc23)cn1
AUC of viability dose-response curve: 384
//
molecule: COC(=O)Nc1nc2ccc([S+]([O-])c3ccccc3)cc2[nH]1 (configuration not stated)
AUC of viability dose-response curve: 460
//
molecule: Nc1ccc([S+](=O)([O-])Nc2ncccn2)cc1
AUC of viability dose-response curve: 467
//
molecule: C[N]1C=C(C=N1)C2=CC=C3N=CC\4=C(N(C(=O)\C=C4)C5=CC6=C(CCN6C(=O)C=C)C=C5)C3=C2
AUC of viability dose-response curve: 359
//
molecule: N[C@@H](Cc1ccc(O)c(O)c1)C(=O)O
AUC of viability dose-response curve: 459

----------
Tested on: SEM cells
Experiment: cell viability relative to DMSO control; higher = less cytotoxic
Conditions: HPLM + 10% dialyzed FBS; 48 h; 0.000781 µM
Below, each of the compounds is paired with its reported cell viability value.

compound: Cc1cccc2c1CC[C@H](CN1CCC(c3c(Cl)cccc3Cl)CC1)C[C@@H]2O
cell viability, %: 71

compound: CC(C)n1cnc2c(NCCc3ccc(O)cc3)nc(-c3csc4ccccc34)nc21
cell viability, %: 105

compound: CN(C)CCOc1ccc(/C(=C(/CCCl)c2ccccc2)c2ccccc2)cc1
cell viability, %: 54.7

compound: Nc1nc(N)c(N=O)c(OCC2CCCCC2)n1
cell viability, %: 71.5

compound: COC(=O)[C@H](c1ccccc1Cl)N1CCc2sccc2C1
cell viability, %: 75.5

compound: N#Cc1ccnc(N2C(=O)CC[C@H]2C(=O)N(c2cncc(F)c2)[C@H](C(=O)NC2CC(F)(F)C2)c2ccccc2Cl)c1
cell viability, %: 94.8

compound: Clc1ccccc1C(c1ccccc1)(c1ccccc1)n1ccnc1
cell viability, %: 118

compound: OCCN(CCO)c1nc(N2CCCCC2)c2nc(N(CCO)CCO)nc(N3CCCCC3)c2n1
cell viability, %: 108

compound: CC(C)(O)C(=O)Nc1ccc([N+](=O)[O-])c(C(F)(F)F)c1
cell viability, %: 98.6

----------
System: SEM cells
Test: cell viability relative to DMSO control; higher = less cytotoxic
Details: HPLM + 10% dialyzed FBS; 48 h; 0.00702 µM

compound: Cc1nc(N)ncc1-c1nc(N2CCOCC2)c2sc(C(C)(C)O)cc2n1
cell viability [%]: 118

compound: CCOC(=O)[C@H]1O[C@@H]1C(=O)N[C@@H](CC(C)C)C(=O)NCCC(C)C
cell viability [%]: 109

compound: Nc1nc(NCCNc2ncc(-n3ccnc3)c(-c3ccc(Cl)cc3Cl)n2)ccc1[N+](=O)[O-]
cell viability [%]: 112

compound: C1COC(NC(C2CC2)C2CC2)=N1
cell viability [%]: 66.1

compound: COc1ccc2[nH]cc(CCNC(C)=O)c2c1
cell viability [%]: 113

compound: O=[S+]([O-])(NCCNC/C=C/c1ccc(Br)cc1)c1cccc2cnccc12
cell viability [%]: 97.5

compound: Cc1cccc2c1CC[C@H](CN1CCC(c3c(Cl)cccc3Cl)CC1)C[C@@H]2O
cell viability [%]: 113

compound: O=C(NCc1ccccc1)c1csc(Nc2ccncn2)n1
cell viability [%]: 97

compound: C[C@H](NCc1ccc(OCc2cccc(F)c2)cc1)C(N)=O
cell viability [%]: 102

compound: CCOC(=O)O[C@]1(C(=O)OCCl)CC[C@H]2[C@@H]3CCC4=CC(=O)C=C[C@]4(C)[C@H]3[C@@H](O)C[C@@]21C
cell viability [%]: 93.3

compound: OCCN(CCO)c1nc(N2CCCCC2)c2nc(N(CCO)CCO)nc(N3CCCCC3)c2n1
cell viability [%]: 109

compound: CC[C@H]1CN2CCc3cc(OC)c(OC)cc3[C@@H]2C[C@@H]1C[C@H]1NCCc2cc(OC)c(OC)cc21
cell viability [%]: 71.5

compound: N#CC[C@H](C1CCCC1)n1cc(-c2ncnc3[nH]ccc23)cn1
cell viability [%]: 103

compound: Cc1c(C(=O)c2cccc3ccccc23)c2cccc3c2n1[C@H](CN1CCOCC1)CO3
cell viability [%]: 85.2

compound: CN1CCN(CCCN2c3ccccc3Sc3ccc(Cl)cc32)CC1.O=C(O)/C=C\C(=O)O.O=C(O)/C=C\C(=O)O
cell viability [%]: 110

compound: Cn1ccc2cc3c(cc21)CCN3C(=O)Nc1cccnc1
cell viability [%]: 132

compound: NNc1nncc2ccccc12
cell viability [%]: 109

compound: Cc1ccc(-c2cc(C(F)(F)F)nn2-c2ccc([S+](N)(=O)[O-])cc2)cc1
cell viability [%]: 106

compound: C[N]1C=C(C=N1)C2=CC=C3N=CC\4=C(N(C(=O)\C=C4)C5=CC6=C(CCN6C(=O)C=C)C=C5)C3=C2
cell viability [%]: 96.1

compound: COc1cc2c(Nc3ccc(Cl)c(Cl)c3F)ncnc2cc1OC[C@@H]1C[C@@H]2CN(C)C[C@@H]2C1
cell viability [%]: 86.2

compound: NCCc1ccc(O)c(O)c1
cell viability [%]: 121

Source of measurements: the supplement of paper PMC11451515
